Taken from patent US9884806B2.

melting point: recorded values

Consider the reported melting point for these molecules:
Enquiry: Give the measured melting point of CC1=C(Nc2cccc(Br)c2)CCC1=O .
Return: 291 to 294 °C

Enquiry: // query melting point value for entry CC1=C(Nc2ccc(C(=O)O)cc2)CCC1=O [Example 02-01]
Return: 228 to 230 °C

Enquiry: Data request, read-out melting point, for CC1=C(Nc2ccc(NCc3ccccc3C)cc2Cl)CCCC1=O [Example 05-76]
Return: 220 to 221 °C

Enquiry: Returns the measured melting point for the input molecule. Input: CC1=C(NC2(C(F)(F)F)C=CC(C(=O)O)=CC2)CCCC1=O (stereo not shown)
Return: 229 to 231 °C

Enquiry: What measured melting point goes with CC1=C(Nc2ccncc2)CCC1=O [Example 01-30] ?
Return: 203 to 205 °C

Continuing:
Enquiry: GET /values?readout=melting point&item= CC1=C(Nc2ccc3cc[nH]c3c2)CCCC1=O [Example 01-62]
Return: 227 to 230 °C

Enquiry: Item under review: CC1=C(Nc2ccc(NC(=O)C3CCCCC3)cc2Cl)CCCC1=O [Example 05-49] . Reported melting point?
Return: 248 to 250 °C

###

STUDY_TARGET: BRD4_2 (Homo sapiens)
Construct: contains two tandem bromodomains (BrD1 and BrD2)
PROTOCOL: Fluorescence anisotropy binding assay (competition with FITC-labeled MS417 probe), BRD4_2
REPORTED_CONDITIONS: FITC-MS417 probe 80 nM, PBS pH 7.4, 1 hour, 25° C.
MEASURED_ENDPOINT: IC50

// known answers, use as guide
Enquiry: Request the reported IC50 associated with CC1=C(Nc2cc(NCc3ccccc3C)ccc2Cl)CCCC1=O
Return: < 1 µM

Enquiry: Returns the measured IC50 for the input compound. Input: COc1ccc(NC(=O)c2ccc(NC3=C(C)C(=O)CC3)c(C)c2)cc1
Return: 1 to 10 µM

Enquiry: Bench note: what IC50 did CC1=C(Nc2ccc(C(=O)Nc3cccc(C)c3)c(Cl)c2)CCC1=O show?
Return: > 10 µM

***
Enquiry: Endpoint output: IC50 of CC1=C(Nc2cc(NS(=O)(=O)Cc3ccccc3)ccc2Cl)CCC1=O . Value?
Return: < 1 µM

Enquiry: Return reported IC50; argument: CNC(=O)c1ccc(NC2=C(C)C(=O)CC2)c(OC)c1
Return: 1 to 10 µM

Enquiry: Please give the measured IC50 for this compound: CC1=C(Nc2cccc(S(N)(=O)=O)c2)CCC1=O
Return: 1 to 10 µM

Enquiry: Using the record for CC1=C(Nc2cccc(C(=O)Nc3cccc(C)c3)c2)CCC1=O , report its IC50.
Return: > 10 µM

Enquiry: Reported IC50, compound CC(=O)c1ccc(NC2=C(C)C(=O)CC2)cc1 : ____
Return: > 10 µM

Enquiry: # query: IC50 of entry COc1cc(NC2=C(C)C(=O)CC2)ccc1C(=O)Nc1cccc(C)c1
Return: 1 to 10 µM

Enquiry: Need IC50 of COc1cccc(NC(=O)c2ccc(NC3=C(C)C(=O)CC3)c(OC)c2)c1 , thanks.
Return: 1 to 10 µM

Enquiry: What value of IC50 has been recorded for this entry: CC1=C(Nc2ccc(NC(=O)c3ccccc3C)cc2Cl)CCC1=O
Return: 1 to 10 µM

###

STUDY_TARGET: first bromodomain (BrD1) of human BRD4 (Homo sapiens)
Construct: the first bromodomain (BrD1) of human BRD4; poly-His (cleaved yes)
PROTOCOL: Fluorescence anisotropy binding assay (competition with FITC-labeled MS417 probe)
REPORTED_CONDITIONS: FITC-MS417 probe 80 nM, PBS pH 7.4, 1 hour, 25° C., read-out: BRD4_1 IC50
pIC50: −log10 of the molar value.
# pIC50 values compiled below

Illustrative cases are given below, each with its answer.
Enquiry: Please state recorded pIC50 (tested on first bromodomain (BrD1) of human BRD4 (Homo sapiens)) of CC1=C(Nc2cccc(N)c2Cl)CCC1=O
Return: 5.00 to 6.00

Enquiry: Field: pIC50 (first bromodomain (BrD1) of human BRD4 (Homo sapiens)). Entry: CC1=C(Nc2ccc(NCc3ccccc3C)cc2Cl)CCCC1=O
Return: 5.00 to 6.00

Enquiry: Tell me reported pIC50 for CC1=C(Nc2cc(NC(=O)c3ccccc3C)ccc2Cl)CCCC1=O , tested with first bromodomain (BrD1) of human BRD4 (Homo sapiens).
Return: > 6.00

Enquiry: Query pIC50 on first bromodomain (BrD1) of human BRD4 (Homo sapiens) for COc1ccc(NC(=O)c2ccc(NC3=C(C)C(=O)CC3)c(F)c2)cc1
Return: 5.00 to 6.00

Enquiry: // fetch first bromodomain (BrD1) of human BRD4 (Homo sapiens) pIC50 for CC1=C(Nc2cc(NC(=O)C3CCCCC3)ccc2Cl)CCCC1=O
Return: > 6.00

---
Enquiry: Please tell me: pIC50 of COC(=O)c1ccc(NC2=C(C)C(=O)CCC2)c(Cl)c1 , system first bromodomain (BrD1) of human BRD4 (Homo sapiens)?
Return: 5.00 to 6.00

Enquiry: Hello, I am looking for reported pIC50 with first bromodomain (BrD1) of human BRD4 (Homo sapiens) for CC1=C(Nc2cccc(NC(=O)/C=C\C(=O)O)c2Cl)CCCC1=O . Could you help?
Return: > 6.00

Enquiry: # returns recorded pIC50 (system: first bromodomain (BrD1) of human BRD4 (Homo sapiens)) for COc1ccccc1NC(=O)c1ccc(NC2=C(C)C(=O)CC2)c(Cl)c1
Return: > 6.00

Enquiry: Lookup: pIC50 / first bromodomain (BrD1) of human BRD4 (Homo sapiens) / CC1=C(Nc2cccc(-c3cn(-c4ccccc4)nn3)c2)CCC1=O
Return: 5.00 to 6.00

###

STUDY_TARGET: first bromodomain (BrD1) of human BRD4 (Homo sapiens)
Construct: the first bromodomain (BrD1) of human BRD4; poly-His (cleaved yes)
PROTOCOL: Fluorescence anisotropy binding assay (competition with FITC-labeled MS417 probe)
REPORTED_CONDITIONS: FITC-MS417 probe 80 nM, PBS pH 7.4, 1 hour, 25° C., read-out: BRD4_1 IC50
pIC50: −log10 of the molar value.
Reported pIC50 values for a set of compounds

Please review the following examples before continuing.
Enquiry: Recorded pIC50 for CC1=C(Nc2ccc(N)cc2Cl)CCCC1=O , please?
Return: 5.00 to 6.00

Enquiry: Can you share its pIC50? I mean this compound: COc1cc(NC2=C(C)C(=O)CC2)ccc1C(=O)Nc1ccc(C)cc1
Return: 5.00 to 6.00

Enquiry: # input compound: CC1=C(Nc2cc(NC(=O)c3cccc4ccccc34)ccc2Cl)CCC1=O ; wanted: its pIC50
Return: > 6.00

Enquiry: Request the reported pIC50 associated with COC(=O)c1ccc(NC2=C(C)C(=O)CC2)cc1OC
Return: 5.00 to 6.00

Enquiry: Report pIC50 for COc1cc(C(=O)Nc2ccccc2C)ccc1NC1=C(C)C(=O)CC1 please.
Return: 5.00 to 6.00

---
Enquiry: Using the record for COc1ccc(NC(=O)Cc2ccc(NC3=C(C)C(=O)CCC3)cc2)cc1 , report its pIC50.
Return: 5.00 to 6.00

Enquiry: Entry under review: COc1ccccc1NC(=O)c1ccc(NC2=C(C)C(=O)CC2)c(C)c1 . Reported pIC50?
Return: 5.00 to 6.00

Enquiry: Query (compound): COc1cccc(NC(=O)c2ccc(NC3=C(C)C(=O)CC3)c(OC)c2)c1 ; field requested: pIC50
Return: 5.00 to 6.00

Enquiry: Endpoint output: pIC50 of CC1=C(Nc2ccc(C(=O)O)cc2Cl)CCC1=O . Value?
Return: 5.00 to 6.00

Enquiry: Name the reported pIC50 value associated with the compound COc1ccc(NC(=O)c2cc(NC3=C(C)C(=O)CCC3)cc3ccccc23)cc1
Return: > 6.00

Enquiry: Given CC1=C(Nc2cc(N)ccc2Cl)CCC1=O , state its recorded pIC50.
Return: 5.00 to 6.00

Enquiry: Bench note: what pIC50 did CC1=C(Nc2ccc(C(=O)O)cc2Br)CCC1=O show?
Return: 5.00 to 6.00

###

Recorded measurements of melting point, one per entry

Consider the following illustrative entries.
Enquiry: Query: melting point; subject: CC1=C(Nc2ccc(NS(=O)(=O)c3ccccc3C)cc2Cl)CCCC1=O [Example 05-68]
Return: 248 to 250 °C

Enquiry: Any idea what melting point was measured for COC(=O)c1ccc(NC2=C(C)C(=O)CC2)cc1OC [Example 01-13] ?
Return: 193 to 196 °C

Enquiry: Query (molecule): CC1=C(Nc2cccc(NS(=O)(=O)c3ccccc3C)c2Cl)CCC1=O [Example 05-65] ; field requested: melting point
Return: 75 to 77 °C

---
Enquiry: Recorded melting point of CC1=C(Nc2cc(NC(=O)C3CCCCC3)ccc2Cl)CCCC1=O [Example 05-45] , please.
Return: 192 to 195 °C

Enquiry: # melting point lookup, item CC1=C(Nc2cc(NCc3ccccc3F)ccc2Cl)CCCC1=O [Example 05-74]
Return: 103 to 105 °C

Enquiry: Given CC1=C(Nc2ccc(C(N)=O)cc2)CCCC1=O [Example 01-35] , state its recorded melting point.
Return: 221 to 223 °C

Enquiry: // lookup melting point for COC(=O)c1ccc(NC2=C(C)C(=O)CC2)c(F)c1 [Example 01-21]
Return: 198 to 201 °C

Enquiry: Query (molecule): CC1=C(Nc2cc(NC(=O)c3ccccc3C)ccc2Cl)CCCC1=O [Example 05-44] ; field requested: melting point
Return: 199 to 201 °C

Enquiry: Need melting point, item CC1=C(Nc2ccc(C(=O)O)cc2Cl)CCC1=O [Example 02-02]
Return: 226 to 230 °C
